Data provenance is patent US8507483B2.

The entries below are paired with their reported IC50.
# Tested on: AKT protein phosphorylated on serine 473 (P-AKT-S473) in PC3 human prostate carcinoma cells
# ASSAY_NAME: pAKT expression in PC3 cells measured by MSD Multi-spot Biomarker Detection (Test B)
# Assay type: cell-based
# MEASUREMENT_CONTEXT: PC-3, inhibition of AKT Ser473 phosphorylation, 1 to 2 h incubation, MSD sandwich immunoassay, absolute IC50, mean of two experiments
Express your answer in µM, writing the number without its unit.

- MOLECULE: "O=c1cc(N2CCOCC2)nc(Cc2nc3ccccc3n2C2CCCCC2)[nH]1 [Example 33]"
  IC50 (µM): 0.142

Turning to the following molecule.
Query :: // lookup IC50 for O=c1cc(N2CCOCC2)nc(Cc2nc3ccc4ccccc4c3o2)[nH]1 [Example 20]
Result :: 1

---

# System: AKT protein phosphorylated on serine 473 (P-AKT-S473) in PC3 human prostate carcinoma cells
# ASSAY_NAME: pAKT expression in PC3 cells measured by MSD Multi-spot Biomarker Detection (Test B)
# Type: cell-based
# MEASUREMENT_CONTEXT: PC-3, inhibition of AKT Ser473 phosphorylation, 1 to 2 h incubation, MSD sandwich immunoassay, absolute IC50, mean of two experiments
Listed next: entries and their corresponding IC50.
# output: number + unit

Query :: Using the record for O=c1cc(N2CCOCC2)nc(Cc2nc3ccccc3n2-c2ccccc2)[nH]1 [Example 13] , report its IC50.
Result :: 0.008 µM

Query :: State the recorded IC50 for this entry: Cn1c(Cc2nc(N3CCOCC3)cc(=O)[nH]2)nc2ccc(F)c(F)c21 [Example 37]
Result :: 0.015 µM

Query :: If you can, please state the reported IC50 value of N#CCn1c(Cc2nc(N3CCOCC3)cc(=O)[nH]2)nc2ccccc21 [Example 30] .
Result :: 1.34 µM

Query :: Consider the compound O=c1cc(N2CCOCC2)nc(Cc2nc3ccc(C(F)(F)F)cc3[nH]2)[nH]1 [Example 26] and give its measured IC50.
Result :: 0.961 µM

Query :: Look up IC50: O=c1cc(N2CCOCC2)nc(Cc2nc3ccc(Br)cc3o2)[nH]1 [Example 9]
Result :: 0.175 µM

Query :: What value of measured IC50 is listed for CCn1c(Cc2nc(N3CCOCC3)cc(=O)[nH]2)nc2ccccc21 [Example 15] ?
Result :: 0.026 µM

Query :: Tell me the measured IC50 of Cn1c(Cc2nc(N3CCOCC3)cc(=O)[nH]2)nc2cccc(Br)c21 [Example 41] , please.
Result :: 0.032 µM

Query :: State the recorded IC50 for this entry: Cc1cc2nc(Cc3nc(N4CCOCC4)cc(=O)[nH]3)[nH]c2cc1Cl [Example 29]
Result :: 0.506 µM

Query :: Please look up its IC50: Cn1c(Cc2nc(N3CCOCC3)cc(=O)[nH]2)nc2ccccc21 [Example 10]
Result :: 0.027 µM

Query :: Requested read-out: IC50. Entry: Cc1ccc2nc(Cc3nc(N4CCOCC4)cc(=O)[nH]3)oc2c1 [Example 8]
Result :: 0.143 µM

Query :: Name the recorded IC50 for COc1ccc2nc(Cc3nc(N4CCOCC4)cc(=O)[nH]3)[nH]c2c1 [Example 4] .
Result :: 0.475 µM
